# tested_target: EP2 receptor (Homo sapiens)
# Sequence (P43116 whole entry): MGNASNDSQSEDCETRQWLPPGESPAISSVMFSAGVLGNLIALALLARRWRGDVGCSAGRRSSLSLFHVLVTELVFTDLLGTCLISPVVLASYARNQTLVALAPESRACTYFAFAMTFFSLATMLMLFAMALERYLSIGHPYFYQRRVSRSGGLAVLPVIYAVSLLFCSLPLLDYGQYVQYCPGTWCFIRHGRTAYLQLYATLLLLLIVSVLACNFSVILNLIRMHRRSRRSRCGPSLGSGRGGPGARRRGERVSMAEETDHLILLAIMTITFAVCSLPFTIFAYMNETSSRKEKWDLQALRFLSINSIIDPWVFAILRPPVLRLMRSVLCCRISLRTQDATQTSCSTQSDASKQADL
# test_details: EP2 Potency Assay (cAMP TR-FRET, CHO-K1 cells transfected with EP2 receptor, PGE2 at EC80)
# details: CHO-K1 cells expressing EP2, prostaglandin E2 at EC80, read-out: EP2 Potency (IC50 category)
pIC50: −log10 of the molar value.
Entries and their pIC50
measured_property: pIC50

>>> print(df.to_string())
                                    compound  measured_property  observed_measurement
 0  CC(C)(C)OC(=O)Nc1ccc(CN2CCOc3c(Cl)cc(-n4ccc5cc(F)ccc54)cc3C2)nn1              pIC50                < 5.30
 1  COc1ncc(CN2CCOc3c(Cl)cc(-n4cc(C)c5cc(F)ccc54)cc3C2)cn1              pIC50          6.00 to 6.30
 2  Fc1ccc2c(ccn2-c2cc(Cl)c3c(c2)CN(Cc2nn[nH]n2)CCO3)c1              pIC50                < 5.30
 3  Fc1ccc2c(ccn2-c2cc(Cl)c3c(c2)CN(Cc2ccc(C(F)F)cc2)CCO3)c1              pIC50                < 5.30
 4  COc1ncc(CN2CCOc3c(Cl)cc(-n4ccc5c4CCCC5)cc3C2)cn1              pIC50          5.30 to 6.00
 5  NC(=O)c1ncc(CN2CCOc3c(Cl)cc(-n4ccc5cc(F)ccc54)cc3C2)cn1              pIC50          5.30 to 6.00
 6  Fc1ccc2c(ccn2-c2cc(Cl)c3c(c2)CN(Cc2ccnc(Cl)c2F)CCO3)c1              pIC50          5.30 to 6.00
 7  Fc1ccc2c(ccn2-c2cc(Cl)c3c(c2)CN(Cc2ccnc(NC4COC4)c2)CCO3)c1              pIC50          5.30 to 6.00
 8  Cc1c(CN2CCOc3c(Cl)cc(-n4ccc5cc(F)ccc54)cc3C2)cnn1C              pIC50          6.00 to 6.30
 9  CC1c2cc(-n3ccc4cc(F)ccc43)cc(Cl)c2OCCN1Cc1cc[nH]c(=O)c1 (centres unmarked)              pIC50          6.00 to 6.30
10  Fc1ccc2c(ccn2-c2cc(Cl)c3c(c2)CN(Cc2cn[nH]c2)CCO3)c1              pIC50          5.30 to 6.00
11  CNc1cc(CN2CCOc3c(Cl)cc(-n4ccc5cc(F)ccc54)cc3C2)ccn1              pIC50          5.30 to 6.00
12  CN(C)C(=O)[C@H]1CC[C@@H](CN2CCOc3c(Cl)cc(-n4ccc5cc(F)ccc54)cc3C2)CC1              pIC50          5.30 to 6.00
13  Fc1ccc2c(ccn2-c2cc(Cl)c3c(c2)CN(Cc2cnc(NC4COC4)nc2)CCO3)c1              pIC50          6.30 to 7.00
14  COc1ncc(CN2CCOc3c(Cl)cc(-c4cccc5c4OCCO5)cc3C2)cn1              pIC50                < 5.30
15  CC(c1cc[nH]c(=O)c1)N1CCOc2c(Cl)cc(-n3ccc4cc(F)ccc43)cc2C1 (centres unmarked)              pIC50                < 5.30
16  C[C@@H]1c2cc(-n3ccc4cc(F)ccc43)cc(Cl)c2OCCN1Cc1cc[nH]c(=O)c1 (single isomer, unassigned)              pIC50                < 5.30
17  COc1ncc(CN2CCOc3c(Cl)cc(N4CCc5cc(F)ccc54)cc3C2)cn1              pIC50          6.00 to 6.30
18  O=c1ncc(CN2CCOc3c(Cl)cc(-c4cccc5c4OCCO5)cc3C2)c[nH]1              pIC50                < 5.30
19  Fc1ccc2c(ccn2-c2cc(Cl)c3c(c2)CN(Cc2cnsc2)CCO3)c1              pIC50          5.30 to 6.00
20  COc1ncc(CN2CCOc3c(Cl)cc(N4CCc5cc(Cl)ccc54)cc3C2)cn1              pIC50          6.00 to 6.30
21  O=c1cc(CN2Cc3cc(-n4ccc5cc(F)ccc54)cc(Cl)c3OCC23CC3)cc[nH]1              pIC50                < 5.30
22  NCc1cc(CN2CCOc3c(Cl)cc(-n4ccc5cc(F)ccc54)cc3C2)ccn1              pIC50          5.30 to 6.00
23  Oc1ccc(CN2CCOc3c(Cl)cc(-n4ccc5cc(F)ccc54)cc3C2)cc1              pIC50                < 5.30
24  Nc1ccc(CN2CCOc3c(Cl)cc(-n4ccc5cc(F)ccc54)cc3C2)nn1              pIC50          5.30 to 6.00
25  COc1nccc(CN2CCOc3c(Cl)cc(-n4ccc5cc(F)ccc54)cc3C2)n1              pIC50          6.00 to 6.30
26  COc1ncc(CN2CCOc3c(Cl)cc(-n4cc(Cl)c5cc(F)ccc54)cc3C2)cn1              pIC50          6.00 to 6.30
27  Fc1ccc2c(ccn2-c2cc(Cl)c3c(c2)CN(Cc2ncon2)CCO3)c1              pIC50                < 5.30
28  N#Cc1cccc(CN2Cc3cc(-n4ccc5cc(F)ccc54)cc(Cl)c3OCC23CC3)c1              pIC50                < 5.30
29  CNC(=O)[C@H]1CC[C@H](CN2CCOc3c(Cl)cc(-n4ccc5cc(F)ccc54)cc3C2)CC1              pIC50          6.00 to 6.30
30  O=c1cc(CN2CCOc3c(Cl)cc(-n4ccc5cc(F)ccc54)cc3C2)cco1              pIC50          6.30 to 7.00
31  CC(C)(C)OC(=O)NCc1ncc(CN2CCOc3c(Cl)cc(-n4ccc5cc(F)ccc54)cc3C2)cn1              pIC50          5.30 to 6.00

====

# test_details: Human Hepatocyte Stability
# Assay type: in vitro ADME
# details: human hepatocytes 0.5×10^6 cells/mL, 120 min, read-out: T1/2 (hepatic)
# Experimental: The tested compound was incubated in duplicate with incubation media (Williams' Medium E with 1× GlutaMAX) containing human hepatocytes (0.5×10^6 cells/mL). These incubations were carried out at a final test concentration of 1 μM over a total incubation period of 120 minutes. […] The samples were analyzed by UPLC-MS/MS to determine the concentration of the tested compound and the percentage remaining, intrinsic clearance (in vitro CLint) and half-life (t½) values were calculated. […]
measured_property: half-life at 1 μM

In [3]: df
Out[3]:
                                    molecule  measured_property  observed_measurement
 0  Cc1c(CN2CCOc3c(Cl)cc(-n4ccc5cc(F)ccc54)cc3C2)cc[nH]c1=O  half-life at 1 μM        1.67 to 3.33 h
 1  O=c1cc(CN2CCOc3c(Cl)cc(-n4ccc5cc(F)ccc54)cc3C2)cc[nH]1 [Ref, reference compound]  half-life at 1 μM        1.67 to 3.33 h
 2  O=c1cc(CN2CCOc3c(Cl)cc(-n4ccc5cc(F)ccc54)cc3C2)cn[nH]1  half-life at 1 μM        1.67 to 3.33 h
 3  COc1ncc(CN2CCOc3c(Cl)cc(-n4ccc5c(F)c(F)ccc54)cc3C2)cn1  half-life at 1 μM        1.67 to 3.33 h
 4  Nc1ncc(CN2CCOc3c(Cl)cc(-n4ccc5cc(F)ccc54)cc3C2)cn1  half-life at 1 μM        1.67 to 3.33 h
 5  O=c1[nH]ccc(CN2CCOc3c(Cl)cc(-n4ccc5cc(F)ccc54)cc3C2)c1F  half-life at 1 μM       0.833 to 1.67 h
 6  C[C@@H]1COc2c(Cl)cc(-n3ccc4cc(F)ccc43)cc2CN1Cc1cnc(=O)[nH]c1  half-life at 1 μM             < 0.833 h
 7  COCc1ncc(CN2CCOc3c(Cl)cc(-n4ccc5cc(F)ccc54)cc3C2)cn1  half-life at 1 μM              > 3.33 h
 8  C[C@@H]1COc2c(Cl)cc(-n3ccc4cc(F)ccc43)cc2CN1Cc1cnc(N)nc1  half-life at 1 μM       0.833 to 1.67 h
 9  O=c1ncc(CN2CCOc3c(Cl)cc(-n4ccc5cc(F)ccc54)cc3C2)c[nH]1  half-life at 1 μM              > 3.33 h
10  Fc1ccc2c(ccn2-c2cc(Cl)c3c(c2)CN(Cc2ccnc(C4COC4)c2)CCO3)c1  half-life at 1 μM             < 0.833 h
11  O=C(O)c1ncc(CN2CCOc3c(Cl)cc(-n4ccc5cc(F)ccc54)cc3C2)cn1  half-life at 1 μM              > 3.33 h
12  O=C(O)c1cc(CN2CCOc3c(Cl)cc(-n4ccc5cc(F)ccc54)cc3C2)ccn1  half-life at 1 μM              > 3.33 h
13  Fc1ccc2c(ccn2-c2cc(Cl)c3c(c2)CN(Cc2cc[nH]c(=S)c2)CCO3)c1  half-life at 1 μM       0.833 to 1.67 h
14  Cc1[nH]c(=O)ncc1CN1CCOc2c(Cl)cc(-n3ccc4cc(F)ccc43)cc2C1  half-life at 1 μM        1.67 to 3.33 h
